Tested on: MOLT-4
run-description: NCI tumour cell line growth inhibition, 48 h
Active and inactive are the calls of the source. Rule as the data show it: active = GI50 up to about 1.1 µM and inactive = higher.
Give one outcome, nothing more. List: active, inactive

CC1CC(C)C(O)C(C2CC(CC(=O)NC3CCCCC3)CC(=O)O2)C1 (stereo unspecified) : inactive
BrC1(Br)C2/C=C\CCCCC21 (stereo unspecified) : inactive
CC(C)(C)OC(=O)N1C(C2=COc3ccccc3O2)=COc2cccnc21 : inactive

## Input Dear colleague, could you share the recorded outcome for O=C(COc1ccccc1Cl)N1N=C(c2ccccc2)CC1(O)c1ccccc1 (stereo unspecified) when you have a moment?
## Output inactive

## Input Dear colleague, could you share the recorded outcome for Cn1nnc2c(C(N)=S)ncn2c1=O when you have a moment?
## Output inactive

## Input Dear colleague, could you share the recorded outcome for O=C(c1ccc(Cl)cc1)N(C(=S)OCc1ccccn1)c1ccccc1 when you have a moment?
## Output inactive

## Input Dear colleague, could you share the recorded outcome for COC1C(O)C(C)OC(O[C@@H]2C[C@H]3CC[C@@H]4[C@H](CC[C@]5(C)[C@@H](C6=CC(=O)OC6)CC[C@]45O)[C@@]3(C)[C@H](O)C2)C1O (stereo partly specified) when you have a moment?
## Output active

## Input Dear colleague, could you share the recorded outcome for CN1CCC[N+](C)=C1c1ccccc1 when you have a moment?
## Output inactive
